- System under test: PTK2 (Homo sapiens, UniProt Q05397)
- Construct: purchased Invitrogen PV3832
- Sequence (Q05397 whole entry): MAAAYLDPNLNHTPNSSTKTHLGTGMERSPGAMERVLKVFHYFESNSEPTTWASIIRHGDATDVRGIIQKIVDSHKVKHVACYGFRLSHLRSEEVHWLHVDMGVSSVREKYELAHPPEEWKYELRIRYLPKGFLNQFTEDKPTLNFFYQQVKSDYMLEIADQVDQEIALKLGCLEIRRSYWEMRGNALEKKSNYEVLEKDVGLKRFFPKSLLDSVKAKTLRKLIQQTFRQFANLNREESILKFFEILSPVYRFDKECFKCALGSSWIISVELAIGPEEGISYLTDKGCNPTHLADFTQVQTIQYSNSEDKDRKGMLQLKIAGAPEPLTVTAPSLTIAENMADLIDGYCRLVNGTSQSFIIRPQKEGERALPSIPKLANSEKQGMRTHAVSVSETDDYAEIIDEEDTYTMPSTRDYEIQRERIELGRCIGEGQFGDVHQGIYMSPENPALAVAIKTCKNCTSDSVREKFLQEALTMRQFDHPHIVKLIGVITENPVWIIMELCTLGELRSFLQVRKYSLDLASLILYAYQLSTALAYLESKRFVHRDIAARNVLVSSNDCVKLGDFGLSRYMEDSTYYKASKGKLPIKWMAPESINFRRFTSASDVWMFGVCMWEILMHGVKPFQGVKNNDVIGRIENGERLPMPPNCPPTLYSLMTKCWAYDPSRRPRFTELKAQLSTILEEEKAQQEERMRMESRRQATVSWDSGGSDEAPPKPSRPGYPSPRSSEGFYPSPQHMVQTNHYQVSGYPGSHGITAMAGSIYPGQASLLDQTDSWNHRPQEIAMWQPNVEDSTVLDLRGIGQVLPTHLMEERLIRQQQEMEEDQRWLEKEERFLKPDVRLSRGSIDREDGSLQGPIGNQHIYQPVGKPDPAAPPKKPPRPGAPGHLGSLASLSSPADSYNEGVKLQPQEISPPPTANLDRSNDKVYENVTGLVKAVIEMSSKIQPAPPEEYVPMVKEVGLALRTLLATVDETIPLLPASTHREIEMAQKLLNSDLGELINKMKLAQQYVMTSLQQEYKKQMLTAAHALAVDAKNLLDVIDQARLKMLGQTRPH
- Experimental protocol: PTK2 enzyme test Assay 1 (DELFIA, poly-Glu-Tyr substrate, PT60 antibody)
- Format: biochemical
- Experimental context: Assay 1 (values without *); 1 h pre-incubation, 50 μM ATP mix, final DMSO 2%
Endpoint name: pIC50
For clarity, pIC50 is expressed as the negative log10 of concentration in mol/L.

Solved entries:
CNC(=O)c1ccc(Nc2ncc(C(F)(F)F)c(N[C@@H]3c4ccccc4C[C@H]3NS(C)(=O)=O)n2)c(OC)c1
8.22
COc1cc(C(=O)NCCN(C)C)c(C)cc1Nc1ncc(Cl)c(N[C@@H]2Cc3ccccc3[C@H]2N(C)S(C)(=O)=O)n1
8.70
CNC(=O)c1ccc(Nc2ncc(C(F)(F)F)c(N[C@@H]3Cc4ccccc4[C@H]3NC(C)=O)n2)c(OC)c1
8.70
COc1cc(C(=O)NC2CCCN(C)C2)ccc1Nc1ncc(C(F)(F)F)c(N[C@@H]2Cc3ccccc3[C@H]2NC(C)=O)n1 (stereo partly shown)
8.70

Okay, now this compound:
Data request: Any idea what pIC50 came out for `COc1cc(N2CCN(CC3CC3)CC2)ccc1Nc1ncc(C(F)(F)F)c(N[C@@H]2Cc3ccccc3[C@H]2N(C)S(C)(=O)=O)n1` on PTK2 (Homo sapiens, UniProt Q05397)?
Data returned: 8.52
